Molecular target: T1, P9A-bA
T1 chain: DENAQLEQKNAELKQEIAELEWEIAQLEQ
Experiment: two-hybrid library CCNG1;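 further: natural log of median RNA to DNA barcode read ratio; higher means stronger binding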

{"BINDER": "DKNAQLKQEIAELEQENAELEWKIAQLKQ [P6A-bA]", "interaction score": -1.98}
{"BINDER": "DKIAQLKQKIAELKQENAELEWENAQLEQ [P4A-bA]", "interaction score": -0.899}
{"BINDER": "DKIAQLKQKNAELKQKNAELKWKIAQLKQ [P2A-bA]", "interaction score": 0.702}
